TARGET OF ASSAY: E6 WT/E6AP (Human papillomavirus type 16)
Sequence (P03126 8-158): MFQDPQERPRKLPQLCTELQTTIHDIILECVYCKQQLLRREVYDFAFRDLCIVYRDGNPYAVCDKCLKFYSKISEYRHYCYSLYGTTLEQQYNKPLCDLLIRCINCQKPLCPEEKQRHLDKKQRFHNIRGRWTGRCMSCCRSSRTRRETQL
METHOD NOTES: biochemical
Assay type: binding
CONDITION LABEL: at 24 h; E6 WT; read-out: BLI maximal Inhibition (max %) E6 WT/E6AP
Give measured Emax for each item. Keep answers brief.
Please state the figure in %; there is no need to write the unit.

What value of Emax has been reported for the following compound? C=CC(=O)N1CCN(c2nc(Cc3ccc(F)cc3)nc3sc4c(c23)CCCC4)CC1 [EIN-146]
100

Entry C=CC(=O)N1CCN(c2nc(CCc3ccc(OC)cc3)nc3sc4c(c23)CCCC4)CC1 [EIN-144] has what Emax?
62

Sample C=CC(=O)N1CCN(c2nc(Cc3ccccc3)nc3sc4c(c23)CCCC4)CC1 [EIN-135] — what was its Emax?
85

Give the measured Emax of C=CC(=O)N1CCN(c2nc(Cc3ccccc3)nc3ccccc23)CC1 [EIN-156] .
100

Param item = COc1cccc(CCc2nc(N3CCN(C(=O)/C=C/CN(C)C)CC3)c3ccccc3n2)c1 [EIN-155] ; retrieve measured Emax.
100

Consider the compound shown here: C=CC(=O)N1CCN(c2nc(CCc3ccccc3OC)nc3sc4c(c23)CCCC4)CC1 [EIN-145] What is its recorded Emax?
65

Fill in: Emax of C=CC(=O)N1CCN(c2nc(NCc3ccccc3)nc3sc4c(c23)CCCC4)CC1 [EIN-134] is ___
100

What does the data say about its Emax? Entry: C=CC(=O)N1CCN(c2nc(CCc3ccccc3)nc3sc4c(c23)CCCC4)CC1 [EIN-132]
100

Which Emax reading was recorded for the compound C=CC(=O)N1CCCN(C(=O)CN2CCc3sccc3C2c2ccccc2C)CC1 (stereo not drawn) [EIN-122] ?
100

* * *

TARGET OF ASSAY: E6 WT/E6AP (Human papillomavirus type 16)
METHOD NOTES: biochemical
Assay type: binding
CONDITION LABEL: FP IC50 at 24 h (μM) E6 WT/E6AP
VALUE KIND: IC50
Answers without a unit are incomplete; give the number and then its unit.

Sample C=CC(=O)N1CCN(c2nc(CCc3ccc(F)cc3)nc3ccccc23)CC1 [EIN-153] — what was its IC50?
27.7 µM

GET /values?readout=IC50&item= C=CC(=O)N1CCN(c2nc(CCc3cccc(F)c3)nc3ccccc23)CC1 [EIN-158]
52.8 µM

Can you share its IC50? I mean this molecule: C=CC(=O)N1CCN(c2nc(NCc3ccccc3)nc3sc4c(c23)CCCC4)CC1 [EIN-134]
12.1 µM

# get_value(readout='IC50', item= COc1cccc(CCc2nc(N3CCN(C(=O)/C=C/CN(C)C)CC3)c3c4c(sc3n2)CCCC4)c1 [EIN-148] )
20.4 µM

Can you share its IC50? I mean this molecule: C=CC(=O)N1CCN(c2nc(-c3ccc(OC(F)(F)F)cc3)nc3ccccc23)CC1 [EIN-162]
105 µM

# get_value(readout='IC50', item= C=CC(=O)N1CCN(c2nc(-c3ccccc3OC)nc3ccccc23)CC1 [EIN-160] )
128 µM

What value of IC50 has been recorded for this entry: C=CC(=O)N1CCN(c2nc(CCc3ccc(OC)cc3)nc3sc4c(c23)CCCC4)CC1 [EIN-144]
14.8 µM

What value of IC50 has been reported for the following molecule? C=CC(=O)N1CCN(c2nc(N(C)Cc3ccccc3)nc3sc4c(c23)CCCC4)CC1 [EIN-139]
33.1 µM

Fill in: IC50 of C=CC(=O)N1CCN(c2nc(-c3ccc(OC)cc3)nc3ccccc23)CC1 [EIN-161] is ___
13.3 µM

IC50 lookup needed for C=CC(=O)N1CCN(c2nc(-c3ccc(OC)cc3)nc3cccnc23)CC1 [EIN-165] , thanks.
38.2 µM

Name the recorded IC50 for C=CC(=O)N1CCN(c2nc(-c3ccccc3)nc3sc4c(c23)CCCC4)CC1 [EIN-133] .
10.4 µM

Name the reported IC50 value associated with the molecule C=CC(=O)N1CCN(c2nc(-c3ccc(OC)cc3F)nc3ccccc23)CC1 [EIN-164]
22.9 µM

For the molecule shown here, C=CC(=O)N1CCN(c2nc(CCc3ccccc3OC)nc3sc4c(c23)CCCC4)CC1 [EIN-145] , give the reported IC50.
15 µM
